subjectOfTest: Cytochrome P450 1A2 (Homo sapiens) (UniProt P05177)
Sequence (P05177 whole entry, looked up): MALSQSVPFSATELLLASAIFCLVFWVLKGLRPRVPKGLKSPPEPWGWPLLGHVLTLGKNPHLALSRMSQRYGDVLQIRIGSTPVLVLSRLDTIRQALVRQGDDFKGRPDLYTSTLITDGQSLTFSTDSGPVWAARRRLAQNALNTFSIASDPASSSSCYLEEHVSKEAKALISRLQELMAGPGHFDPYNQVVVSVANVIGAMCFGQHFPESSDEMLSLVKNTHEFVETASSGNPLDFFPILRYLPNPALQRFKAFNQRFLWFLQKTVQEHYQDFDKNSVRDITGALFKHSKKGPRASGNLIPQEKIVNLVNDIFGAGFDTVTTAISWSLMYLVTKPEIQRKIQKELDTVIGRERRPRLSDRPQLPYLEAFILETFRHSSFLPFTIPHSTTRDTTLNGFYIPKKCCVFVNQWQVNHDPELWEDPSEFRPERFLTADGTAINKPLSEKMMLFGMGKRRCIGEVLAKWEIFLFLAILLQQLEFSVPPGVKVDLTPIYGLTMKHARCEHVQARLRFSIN
method: Cytochrome panel assay with activity outcomes
conditionInfo: recombinant CYP, pro-luciferin dealkylation, luminescence, p450-cyp1a2; series mostly up to 57.1 µM
The campaign covered roughly 16,000 compounds. About 5,700 (36%) were called active. Not shown: some 24% with an inconclusive outcome. Calls come from the whole dose curve; as a rule, active = well fitted curve in the direction sought with a large enough effect; inconclusive = small, poorly fitted or top-dose-only effect, or effect the other way; inactive = no such curve, though single readings can be large or run the other way. The list shows a part of the results.
Choose one outcome from this list and give only that: active, inactive

Some solved entries appear below for comparison.
>>> discretelabel("O=C(OC1CCN(c2ncc(C(F)(F)F)cc2Cl)CC1)c1cccc(C(F)(F)F)c1")
"inactive"
>>> discretelabel("c1ccc(Nc2ncnc3ccc(-c4cccnc4)cc23)cc1")
"active"
>>> discretelabel("N[C@@H](C(=O)O)[C@H](CC(=O)O)c1ccc(Cl)cc1")
"inactive"
>>> discretelabel("CCCCN(C)CCCNC(=O)CCn1nc(-c2ccccc2)ccc1=O")
"inactive"

Kindly consider the entry below.
Query :: Kindly provide the recorded test outcome for the following compound: COC(=O)CNC(=O)/C=C/c1ccc(OC)cc1
Result :: active

###

subjectOfTest: Cytochrome P450 1A2 (Homo sapiens)
method: Cytochrome panel assay with activity outcomes
conditionInfo: recombinant CYP, pro-luciferin dealkylation, luminescence, p450-cyp1a2; series mostly up to 57.1 µM
Out of some 16,000 compounds screened, about 5,700 (36%) were called active. Not shown: some 24% with an inconclusive outcome. Calls follow the shape of the dose curve; as a rule, active = well fitted curve in the direction sought with a large enough effect; inconclusive = small, poorly fitted or top-dose-only effect, or effect the other way; inactive = no such curve, though single readings can be large or run the other way. The list shows a part of the results.
Choose one outcome from this list and give only that: active, inactive

Some solved entries appear below for comparison.
>>> discretelabel("CN(C)c1ccc(N=Nc2cccc3ccoc23)cc1")
"active"
>>> discretelabel("CCN1C(=O)/C(=C/C=C2/SCCN2C)SC1=S")
"active"
>>> discretelabel("CCC1NC(=S)N(C2CCCCC2)C1=O (stereo not given)")
"inactive"

Query :: Kindly provide the recorded test outcome for the following compound: CN1CCN(NC(=O)CN2C(=O)/C(=C/c3c(Cl)cccc3Cl)SC2=S)CC1
Result :: inactive

Query :: Kindly provide the recorded test outcome for the following compound: NC[C@@H]1O[C@H](O[C@@H]2[C@H](O[C@@H]3O[C@H](CO)[C@@H](COC[C@H]4O[C@@H](CN)[C@@H](O)[C@@H](O)[C@@H]4N)[C@@H]3O)[C@@H](O)[C@@H](N)C[C@H]2N)[C@@H](N)[C@H](O)[C@@H]1O
Result :: inactive

###

subjectOfTest: Cytochrome P450 1A2 (Homo sapiens) (UniProt P05177)
method: Cytochrome panel assay with activity outcomes
conditionInfo: recombinant CYP, pro-luciferin dealkylation, luminescence, p450-cyp1a2; series mostly up to 57.1 µM
Hit rate of the full screen: of about 16,000 compounds, about 5,700 (36%) were called active. Inconclusive results (about 24%) are left out. The call rests on the fitted dose curve; in most records, active means well fitted curve in the direction sought with a large enough effect; inconclusive means small, poorly fitted or top-dose-only effect, or effect the other way; inactive means no such curve, though single readings can be large or run the other way. This is one part of the list.
Choose one outcome from this list and give only that: active, inactive

>>> discretelabel("Cc1cccc(CNc2ncnc3ccc(-c4c(C)noc4C)cc23)c1")
"active"
>>> discretelabel("O=C(CCCCC(=O)Nc1c(I)cc(I)c(C(=O)O)c1I)Nc1c(I)cc(I)c(C(=O)O)c1I")
"inactive"
>>> discretelabel("CC1(C)CC(=O)C2=C(C1)N(c1ccc(F)cc1)C(N)=C(C#N)C2c1cccs1 (stereo not given)")
"inactive"
>>> discretelabel("O=C(Cc1ncc(C(F)(F)F)cc1Cl)Nc1cccc(Br)c1")
"active"

Kindly consider the entry below.
Query :: Kindly provide the recorded test outcome for the following molecule: CCc1ccc(C(=O)COC(=O)C(Cc2ccccc2)NC(=O)C2CCC(C)CC2)cc1 (stereo not given)
Result :: inactive

###

subjectOfTest: Cytochrome P450 1A2 (Homo sapiens)
method: Cytochrome panel assay with activity outcomes
conditionInfo: recombinant CYP, pro-luciferin dealkylation, luminescence, p450-cyp1a2; series mostly up to 57.1 µM
The campaign covered roughly 16,000 compounds. About 5,700 (36%) were called active. Not shown: some 24% with an inconclusive outcome. This is one part of the list.
testReadout: AC50

The cases that follow already have their AC50 on record.
>>> datavalue("C=CCN1C(=CCO)[C@H]2C[C@H]3[C@@H]1CC[C@@]31c3ccccc3N3C=C4[C@@H]5N(/C=C/2[C@H]31)c1ccccc1[C@]51CC[C@H]2[C@H]1C[C@@H]4/C(=C/CO)N2CC=C")
"inactive"
>>> datavalue("CCOC(=O)Cc1csc(NS(=O)(=O)c2ccccc2)n1")
"inactive"
>>> datavalue("CC(C)CC(=O)N1CCC(O)(CS(=O)(=O)Cc2ccc(Cl)cc2)CC1")
"inactive"
>>> datavalue("CC1(C)CC2(CCO1)OC(=O)CC2C(=O)NCCc1ccccc1 (stereo not drawn)")
"inactive"

Query :: Provide measured AC50 value, entry: c1ccc(Nc2nc(-c3ccc4c(c3)OCO4)nc3ccccc23)cc1
Result :: 1.26 µM (active)

Query :: Provide measured AC50 value, entry: COc1cc2nc(N3CCN(C(=O)OCc4ccccc4)[C@H](C(=O)NC(C)(C)C)C3)nc(N)c2cc1OC
Result :: inactive

Query :: Provide measured AC50 value, entry: NS(=O)(=O)c1ccc(NCc2ccccc2OCc2ccccc2F)cc1
Result :: 14.1 µM (active)

Query :: Provide measured AC50 value, entry: CCCCCCCCCCn1c2c(c(=N)c3c1CCC3)CCC2
Result :: 14.1 µM (active)

###

subjectOfTest: Cytochrome P450 1A2 (Homo sapiens) (UniProt P05177)
method: Cytochrome panel assay with activity outcomes
conditionInfo: recombinant CYP, pro-luciferin dealkylation, luminescence, p450-cyp1a2; series mostly up to 57.1 µM
About 5,700 (36%) of roughly 16,000 compounds were called active. Roughly 24% stayed inconclusive and do not appear here. Calls follow the shape of the dose curve; as a rule, active = well fitted curve in the direction sought with a large enough effect; inconclusive = small, poorly fitted or top-dose-only effect, or effect the other way; inactive = no such curve, though single readings can be large or run the other way. The list shows a part of the results.
Choose one outcome from this list and give only that: active, inactive

>>> discretelabel("Cn1c(O)c(C(C#N)=C2N=c3ccccc3=N2)c2ccccc21")
"active"
>>> discretelabel("C[N+](C)(C)CCO")
"inactive"
>>> discretelabel("CCn1c(CCNC(=O)c2ccc(Cl)cc2Cl)n[nH]c1=S")
"inactive"
>>> discretelabel("COc1ccc(-c2nn(-c3ccccc3)cc2/C=N/NC(=O)c2ccc3c(c2)OCO3)cc1")
"inactive"
>>> discretelabel("CC(=O)N=c1sc(S(N)(=O)=O)nn1C")
"inactive"

Query :: Kindly provide the recorded test outcome for the following compound: Cc1onc(-c2c(Cl)cccc2Cl)c1C(=O)N1CCc2ccccc2C1
Result :: inactive

Query :: Kindly provide the recorded test outcome for the following compound: CC(=O)c1cc2c(cc1NC(=O)CCCC(=O)O)OCO2
Result :: inactive

###

subjectOfTest: Cytochrome P450 1A2 (Homo sapiens)
method: Cytochrome panel assay with activity outcomes
conditionInfo: recombinant CYP, pro-luciferin dealkylation, luminescence, p450-cyp1a2; series mostly up to 57.1 µM
The whole screen tested about 16,000 compounds, of which about 5,700 (36%) were called active. Inconclusive results (about 24%) are left out. Calls come from the whole dose curve; as a rule, active = well fitted curve in the direction sought with a large enough effect; inconclusive = small, poorly fitted or top-dose-only effect, or effect the other way; inactive = no such curve, though single readings can be large or run the other way. This is one part of the list.
Choose one outcome from this list and give only that: yes for active, no for inactive

>>> discretelabel("Cc1ccc(S(=O)(=O)N2CCN(S(C)(=O)=O)C2)cc1")
"no"
>>> discretelabel("Cc1ccc(/C=C/c2nnc(-c3cccs3)o2)cc1")
"yes"
>>> discretelabel("CSc1ccccc1N1CCN(C(=O)Nc2ccc3c(c2)NC(=O)CO3)CC1")
"no"
>>> discretelabel("CC(=O)N1CCC[C@@]2(CCN(Cc3nccs3)C2)C1")
"no"

Query :: Kindly provide the recorded test outcome for the following compound: CCC(C(=O)N1CCOCC1)n1c(C(=O)OC)cc2occc21 (stereo unspecified)
Result :: no

Query :: Kindly provide the recorded test outcome for the following compound: CC(=O)c1c(C(C)=O)c(C)n(NC(=O)c2ccncc2)c1C
Result :: no

Query :: Kindly provide the recorded test outcome for the following compound: COC(=O)C(Cc1ccc(OC(=O)c2ccc(C(F)(F)F)cc2)cc1)N1Cc2ccccc2C1=O (stereo unspecified)
Result :: no

Query :: Kindly provide the recorded test outcome for the following compound: Cc1ccc(C(=O)NNC(=O)CSc2nnc3c(n2)[nH]c2ccc(F)cc23)cc1
Result :: no

Query :: Kindly provide the recorded test outcome for the following compound: CC1CCc2cc(F)ccc2N1C(=O)CSc1nnc2c(n1)[nH]c1ccc(F)cc12 (stereo unspecified)
Result :: yes

Query :: Kindly provide the recorded test outcome for the following compound: O=C(c1cccc(C(F)(F)F)c1)N1CCC(O)(CS(=O)(=O)Cc2ccccc2)CC1
Result :: no

Query :: Kindly provide the recorded test outcome for the following compound: C(=C\c1nnc(-c2cccs2)o1)/c1ccccc1
Result :: yes

###

subjectOfTest: Cytochrome P450 1A2 (Homo sapiens)
method: Cytochrome panel assay with activity outcomes
conditionInfo: recombinant CYP, pro-luciferin dealkylation, luminescence, p450-cyp1a2; series mostly up to 57.1 µM
The campaign covered roughly 16,000 compounds. About 5,700 (36%) were called active. About 24% were inconclusive and are not listed. Calls follow the shape of the dose curve; as a rule, active = well fitted curve in the direction sought with a large enough effect; inconclusive = small, poorly fitted or top-dose-only effect, or effect the other way; inactive = no such curve, though single readings can be large or run the other way. Some of the results follow.
Choose one outcome from this list and give only that: T = active, F = inactive

>>> discretelabel("N#Cc1ccccc1NC(=O)Nc1cccs1")
"T"
>>> discretelabel("Cn1cccc1C(=O)N1CCC[C@@]2(CCN(Cc3nccs3)C2)C1")
"F"
>>> discretelabel("CC1=C(C#N)C(NC(=O)C2CCCCC2)(C(F)(F)F)C(=O)N1 (stereo not drawn)")
"F"
>>> discretelabel("O=S(=O)(c1ccccc1)N1CCC2(CC1)CN(c1ncccn1)C2")
"F"
>>> discretelabel("CCOc1ccc(-n2cc(C(=O)NCc3ccco3)c3cc(OC)c(OC)cc3c2=O)cc1")
"F"
>>> discretelabel("COCC(=O)N1CCC[C@@]2(CCN(Cc3ccc(C#N)cc3)C2)C1")
"F"

Query :: Kindly provide the recorded test outcome for the following molecule: COc1ccc(/C=C2\CCCC3C2=NN(C(=O)c2ccco2)C3c2ccc(OC)c(OC)c2)cc1OC (stereo not drawn)
Result :: F

Query :: Kindly provide the recorded test outcome for the following molecule: CCCCOc1ccc(C(=O)NCc2ccco2)cc1
Result :: T

Query :: Kindly provide the recorded test outcome for the following molecule: CN(NC(=O)NN)c1ncc(C(F)(F)F)cc1Cl
Result :: T

Query :: Kindly provide the recorded test outcome for the following molecule: N#CCCn1c(=O)c(CCc2ccccc2)nc2cnc(Nc3ccccc3)nc21
Result :: F

Query :: Kindly provide the recorded test outcome for the following molecule: COc1cccc(Nc2ncc3nc(C)c(=O)n(CCC#N)c3n2)c1
Result :: T

Query :: Kindly provide the recorded test outcome for the following molecule: O=C(Nc1cccc(F)c1)N1CCC2(CC1)CCN(C(=O)c1ccco1)CC2
Result :: F

Query :: Kindly provide the recorded test outcome for the following molecule: COc1cccc(Nc2ncc3nc(CCc4ccccc4)c(=O)n(CCC#N)c3n2)c1
Result :: F

Query :: Kindly provide the recorded test outcome for the following molecule: CCCc1nnc(NC(=O)CCC(=O)N2CCN(c3ccccn3)CC2)s1
Result :: F

Query :: Kindly provide the recorded test outcome for the following molecule: CCS(=O)(=O)N1CCC(C(=O)NCc2ccco2)CC1
Result :: F

Query :: Kindly provide the recorded test outcome for the following molecule: CCCC1CCC(c2ccc(C(N)=O)cc2)CC1 (stereo not drawn)
Result :: F

Query :: Kindly provide the recorded test outcome for the following molecule: COc1ccc(-c2nc3cnc(Nc4cccc(OC)c4)nc3n(CCC#N)c2=O)cc1
Result :: T

Query :: Kindly provide the recorded test outcome for the following molecule: CC(=O)c1ccc(NC(=O)C2(c3ccccc3)CCOCC2)cc1
Result :: F
